TARGET UNDER TEST: OCT2 (Homo sapiens)
ASSAY: SLC inhibition assay in HEK293 cells
Assay type: in vitro ADME
CONDITION DESCRIPTION: human, HEK293 cells overexpressing OCT2 (and MOCK cells), probe metformin
ASSAY READOUT: activity at 500 µM (%)
One number for each entry, in %.

Prompt line: Respond only with activity at 500 µM recorded for C=C[C@H]1C[N@@]2CC[C@H]1C[C@@H]2[C@@H](O)c1ccnc2ccc(OC)cc12 [Quinidine, reference compound]
Response line: 31.5

* * *

TARGET UNDER TEST: CYP1A2 (Homo sapiens, UniProt P05177)
Sequence (P05177 whole entry): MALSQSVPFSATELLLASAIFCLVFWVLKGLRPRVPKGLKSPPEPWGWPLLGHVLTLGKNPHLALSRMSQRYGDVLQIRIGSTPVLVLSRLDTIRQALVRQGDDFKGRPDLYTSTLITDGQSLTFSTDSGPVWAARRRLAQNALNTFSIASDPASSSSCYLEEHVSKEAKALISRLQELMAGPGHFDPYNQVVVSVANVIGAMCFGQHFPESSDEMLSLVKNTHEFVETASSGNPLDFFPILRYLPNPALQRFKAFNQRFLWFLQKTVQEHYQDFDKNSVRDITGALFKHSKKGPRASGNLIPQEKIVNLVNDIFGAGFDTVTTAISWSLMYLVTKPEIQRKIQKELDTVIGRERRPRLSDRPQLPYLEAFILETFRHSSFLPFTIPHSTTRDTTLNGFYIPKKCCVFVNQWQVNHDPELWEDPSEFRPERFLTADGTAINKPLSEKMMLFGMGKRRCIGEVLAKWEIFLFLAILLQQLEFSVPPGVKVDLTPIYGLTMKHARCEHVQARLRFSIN
ASSAY: biochemical
Type: in vitro ADME
CONDITION DESCRIPTION: Kiu, phenacetin; unbound Ki
ASSAY READOUT: pKi
Numbers only, as −log10 of the molar value.

Prompt line: Look up pKi of C=CC(=O)N1CCC([C@@H]2CCNc3c(C(N)=O)c(-c4ccc(Oc5ccccc5)cc4)nn32)CC1 [zanubrutinib] and report it.
Response line: 4.32

* * *

TARGET UNDER TEST: OCT2 (Homo sapiens, UniProt O15244)
Sequence (O15244 whole entry): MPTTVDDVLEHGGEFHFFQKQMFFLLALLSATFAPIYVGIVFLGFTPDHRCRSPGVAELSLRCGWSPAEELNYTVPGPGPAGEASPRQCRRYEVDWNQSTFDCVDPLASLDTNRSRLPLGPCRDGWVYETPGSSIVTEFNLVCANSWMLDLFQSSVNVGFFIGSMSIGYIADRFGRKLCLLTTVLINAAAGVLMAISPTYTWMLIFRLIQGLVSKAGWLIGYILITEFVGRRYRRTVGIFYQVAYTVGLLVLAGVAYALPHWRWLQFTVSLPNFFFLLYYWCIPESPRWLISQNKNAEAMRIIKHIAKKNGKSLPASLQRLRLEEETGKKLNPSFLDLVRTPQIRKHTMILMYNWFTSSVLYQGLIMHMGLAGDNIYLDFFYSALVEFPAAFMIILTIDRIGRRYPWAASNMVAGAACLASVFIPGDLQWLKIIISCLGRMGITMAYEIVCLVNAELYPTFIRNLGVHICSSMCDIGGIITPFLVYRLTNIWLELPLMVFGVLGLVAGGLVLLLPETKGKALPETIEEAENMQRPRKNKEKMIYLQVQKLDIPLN
ASSAY: SLC inhibition assay in HEK293 cells
pIC50: −log10 of the molar value.
ASSAY READOUT: pIC50

Prompt line: Could you please provide reported pIC50 for C=CC(=O)N1CCC([C@@H]2CCNc3c(C(N)=O)c(-c4ccc(Oc5ccccc5)cc4)nn32)CC1 [zanubrutinib] ? Thanks!
Response line: ~5.35

* * *

TARGET UNDER TEST: CYP2D6 (Homo sapiens, UniProt P10635)
Sequence (P10635 whole entry): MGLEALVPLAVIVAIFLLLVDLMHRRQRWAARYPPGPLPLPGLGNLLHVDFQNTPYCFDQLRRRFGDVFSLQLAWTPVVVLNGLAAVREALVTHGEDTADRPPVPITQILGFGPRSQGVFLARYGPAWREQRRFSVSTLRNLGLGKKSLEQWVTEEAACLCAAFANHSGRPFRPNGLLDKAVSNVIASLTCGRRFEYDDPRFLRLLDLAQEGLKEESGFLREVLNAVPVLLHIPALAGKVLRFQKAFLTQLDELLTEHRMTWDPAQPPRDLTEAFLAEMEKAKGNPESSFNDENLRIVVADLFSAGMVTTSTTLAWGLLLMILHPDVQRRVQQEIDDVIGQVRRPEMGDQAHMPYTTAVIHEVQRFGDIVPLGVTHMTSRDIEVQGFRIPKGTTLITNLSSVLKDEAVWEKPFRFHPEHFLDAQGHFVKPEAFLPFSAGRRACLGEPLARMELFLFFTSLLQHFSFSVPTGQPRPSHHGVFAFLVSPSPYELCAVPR
ASSAY: CYP reversible inhibition in HLMs
Format: in vitro ADME
CONDITION DESCRIPTION: Kiu, dextromethorphan; unbound Ki
ASSAY READOUT: pKi
Answers are plain numbers, as −log10 of the molar value.

Prompt line: Give pKi for C=CC(=O)N1CCC([C@@H]2CCNc3c(C(N)=O)c(-c4ccc(Oc5ccccc5)cc4)nn32)CC1 tested on CYP2D6 (Homo sapiens, UniProt P10635).
Response line: 4.54

* * *

TARGET UNDER TEST: P-gp (Homo sapiens)
Sequence (P08183 whole entry): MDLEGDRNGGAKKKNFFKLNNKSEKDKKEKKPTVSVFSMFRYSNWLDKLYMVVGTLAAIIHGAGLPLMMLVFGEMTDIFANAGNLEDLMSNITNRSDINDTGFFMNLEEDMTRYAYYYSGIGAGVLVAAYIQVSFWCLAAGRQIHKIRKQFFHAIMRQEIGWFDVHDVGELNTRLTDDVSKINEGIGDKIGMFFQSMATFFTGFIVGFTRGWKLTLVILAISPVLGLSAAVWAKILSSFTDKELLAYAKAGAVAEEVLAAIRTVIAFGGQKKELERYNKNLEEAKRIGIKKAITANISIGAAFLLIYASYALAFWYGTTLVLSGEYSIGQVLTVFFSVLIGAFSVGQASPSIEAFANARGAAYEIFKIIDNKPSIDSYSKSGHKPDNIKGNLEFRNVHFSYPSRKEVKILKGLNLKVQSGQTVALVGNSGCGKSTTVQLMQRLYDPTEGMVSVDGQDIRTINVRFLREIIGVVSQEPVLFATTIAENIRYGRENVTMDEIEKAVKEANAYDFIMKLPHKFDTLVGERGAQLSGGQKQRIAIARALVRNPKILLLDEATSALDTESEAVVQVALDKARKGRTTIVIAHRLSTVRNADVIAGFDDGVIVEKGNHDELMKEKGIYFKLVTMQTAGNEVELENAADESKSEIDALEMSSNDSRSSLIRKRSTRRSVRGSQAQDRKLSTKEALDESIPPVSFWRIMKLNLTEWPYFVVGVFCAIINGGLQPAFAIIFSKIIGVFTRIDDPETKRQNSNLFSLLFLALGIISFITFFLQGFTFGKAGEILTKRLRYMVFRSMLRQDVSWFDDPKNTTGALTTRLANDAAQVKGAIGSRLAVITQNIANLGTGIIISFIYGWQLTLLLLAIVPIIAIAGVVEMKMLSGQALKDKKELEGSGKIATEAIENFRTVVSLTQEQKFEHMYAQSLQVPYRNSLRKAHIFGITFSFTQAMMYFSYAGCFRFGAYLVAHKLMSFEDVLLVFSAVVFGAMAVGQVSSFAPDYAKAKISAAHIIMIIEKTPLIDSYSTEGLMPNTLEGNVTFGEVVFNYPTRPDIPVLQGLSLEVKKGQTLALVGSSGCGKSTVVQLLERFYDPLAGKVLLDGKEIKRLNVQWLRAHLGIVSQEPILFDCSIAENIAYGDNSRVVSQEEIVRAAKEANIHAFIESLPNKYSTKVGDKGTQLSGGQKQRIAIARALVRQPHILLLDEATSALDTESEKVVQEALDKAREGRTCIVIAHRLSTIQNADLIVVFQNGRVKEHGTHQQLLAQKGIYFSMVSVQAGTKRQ
ASSAY: P-gp transportation in MDCK-MDR1 cells
Type: in vitro ADME
CONDITION DESCRIPTION: dog, MDCK-MDR1
ASSAY READOUT: Papp A→B at 90 min, 10 µM (×10⁻⁶ cm/s)
Give bare numbers, in ×10⁻⁶ cm/s.

Prompt line: Give recorded Papp A→B at 90 min, 10 µM. C=CC(=O)N1CCC([C@@H]2CCNc3c(C(N)=O)c(-c4ccc(Oc5ccccc5)cc4)nn32)CC1
Response line: 21.9

* * *

TARGET UNDER TEST: OAT1 (Homo sapiens)
ASSAY: SLC inhibition assay in HEK293 cells
CONDITION DESCRIPTION: human
ASSAY READOUT: activity at 0.05 µM (%)
Give bare numbers, in %.

Prompt line: Give a short answer stating reported activity at 0.05 µM for C=CC(=O)N1CCC([C@@H]2CCNc3c(C(N)=O)c(-c4ccc(Oc5ccccc5)cc4)nn32)CC1 .
Response line: 103

* * *

TARGET UNDER TEST: UniProt Q4U2R8
Sequence (Q4U2R8 1-563): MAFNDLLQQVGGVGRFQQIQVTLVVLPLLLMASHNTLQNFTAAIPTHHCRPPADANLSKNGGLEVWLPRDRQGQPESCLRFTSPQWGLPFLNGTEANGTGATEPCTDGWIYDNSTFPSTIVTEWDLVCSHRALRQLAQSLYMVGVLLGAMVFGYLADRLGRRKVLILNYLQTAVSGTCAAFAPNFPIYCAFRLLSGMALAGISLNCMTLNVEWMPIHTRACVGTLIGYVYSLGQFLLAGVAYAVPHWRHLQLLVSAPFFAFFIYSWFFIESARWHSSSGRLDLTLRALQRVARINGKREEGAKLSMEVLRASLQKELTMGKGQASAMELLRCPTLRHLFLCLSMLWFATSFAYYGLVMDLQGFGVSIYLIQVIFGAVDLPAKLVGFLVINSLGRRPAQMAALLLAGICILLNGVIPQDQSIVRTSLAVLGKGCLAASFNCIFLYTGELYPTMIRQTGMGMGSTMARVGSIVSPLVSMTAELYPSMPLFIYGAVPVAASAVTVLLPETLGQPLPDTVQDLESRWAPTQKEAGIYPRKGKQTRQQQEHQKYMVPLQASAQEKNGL
ASSAY: SLC inhibition assay in HEK293 cells
CONDITION DESCRIPTION: human
ASSAY READOUT: activity at 1 µM (%)
Give bare numbers, in %.

Prompt line: Indicate its recorded activity at 1 µM; the molecule in question is C=CC(=O)N1CCC([C@@H]2CCNc3c(C(N)=O)c(-c4ccc(Oc5ccccc5)cc4)nn32)CC1
Response line: 109
